In this section we review reported Kb values for a set of compounds.
Molecular target: Oxytocin receptor (Homo sapiens)
Sequence (P30559 whole entry): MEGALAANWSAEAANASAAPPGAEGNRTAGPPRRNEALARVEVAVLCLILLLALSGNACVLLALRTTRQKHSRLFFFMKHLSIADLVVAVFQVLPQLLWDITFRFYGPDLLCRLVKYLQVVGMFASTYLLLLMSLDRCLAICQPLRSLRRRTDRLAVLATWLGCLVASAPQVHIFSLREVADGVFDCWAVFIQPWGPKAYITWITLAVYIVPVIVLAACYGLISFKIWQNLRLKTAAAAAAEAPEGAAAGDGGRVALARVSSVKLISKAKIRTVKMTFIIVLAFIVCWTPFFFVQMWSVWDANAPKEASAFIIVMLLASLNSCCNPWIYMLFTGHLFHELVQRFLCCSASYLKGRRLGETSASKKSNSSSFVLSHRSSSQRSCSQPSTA
Assay: Activity at OT receptor assessed as oxytocic activity in absence of magnesium
Format: functional
Conditions: read-out: pA2 (converted)
Positions of bridges follow the written chain, without caps; N, C: chain ends. Non-standard residues stand in square brackets, D forms with d. Residues, ends and D or L forms follow the SMILES beside them. Cha = N[C@@H](CC1CCCCC1)C(=O)O; Orn = NCCC[C@H](N)C(=O)O; Dab = NCC[C@H](N)C(=O)O; Dap = NC[C@H](N)C(=O)O; Mpa = O=C(O)CCS

Worked set:
>  <COMPOUND>
NCC[C@H](NC(=O)[C@@H]1CCCN1C(=O)[C@@H]1CSSCCC(=O)N[C@@H](Cc2ccc(O)cc2)C(=O)N[C@@H](Cc2ccccc2)C(=O)N[C@@H](CC2CCCCC2)C(=O)N[C@@H](CC(N)=O)C(=O)N1)C(=O)NCC(N)=O ([Mpa]YF[Cha]NCP[Dab]G-NH2; disulfide 1-6)

>  <TARGET OF ASSAY>
Oxytocin receptor (Homo sapiens)

>  <RESULT>
447 nM (agonist)

$$$$
>  <COMPOUND>
NCCC[C@H](NC(=O)[C@@H]1CCCN1C(=O)[C@@H]1CSSCCC(=O)N[C@@H](Cc2ccc(O)cc2)C(=O)N[C@@H](Cc2ccccc2)C(=O)N[C@@H](CC2CCCCC2)C(=O)N[C@@H](CC(N)=O)C(=O)N1)C(=O)NCC(N)=O ([Mpa]YF[Cha]NCP[Orn]G-NH2; disulfide 1-6)

>  <TARGET OF ASSAY>
Oxytocin receptor (Homo sapiens)

>  <RESULT>
282 nM (agonist)

$$$$
>  <COMPOUND>
NC[C@H](NC(=O)[C@@H]1CCCN1C(=O)[C@@H]1CSSCCC(=O)N[C@@H](Cc2ccc(O)cc2)C(=O)N[C@@H](Cc2ccccc2)C(=O)N[C@@H](CC2CCCCC2)C(=O)N[C@@H](CC(N)=O)C(=O)N1)C(=O)NCC(N)=O ([Mpa]YF[Cha]NCP[Dap]G-NH2; disulfide 1-6)

>  <TARGET OF ASSAY>
Oxytocin receptor (Homo sapiens)

>  <RESULT>
479 nM (agonist)

$$$$

Attention now shifts to the item below.
Asked: Look up and state reported Kb for NCCCC[C@H](NC(=O)[C@@H]1CCCN1C(=O)[C@@H]1CSSCCC(=O)N[C@@H](Cc2ccc(O)cc2)C(=O)N[C@@H](Cc2ccccc2)C(=O)N[C@@H](CC2CCCCC2)C(=O)N[C@@H](CC(N)=O)C(=O)N1)C(=O)NCC(N)=O ([Mpa]YF[Cha]NCPKG-NH2; disulfide 1-6)
Given back: 331 nM (agonist)
